# reported percent of parent; entries follow
B1: TMEM59 peptide (residues 268–280), wild type [modified: long spacer (Tds) at the N-terminal end, used for immobilisation; long spacer (Tds) at the N-terminal end, used for immobilisation] [not stated] / GST-HA-ATG16L1(231–607) … (parent)
chain 1: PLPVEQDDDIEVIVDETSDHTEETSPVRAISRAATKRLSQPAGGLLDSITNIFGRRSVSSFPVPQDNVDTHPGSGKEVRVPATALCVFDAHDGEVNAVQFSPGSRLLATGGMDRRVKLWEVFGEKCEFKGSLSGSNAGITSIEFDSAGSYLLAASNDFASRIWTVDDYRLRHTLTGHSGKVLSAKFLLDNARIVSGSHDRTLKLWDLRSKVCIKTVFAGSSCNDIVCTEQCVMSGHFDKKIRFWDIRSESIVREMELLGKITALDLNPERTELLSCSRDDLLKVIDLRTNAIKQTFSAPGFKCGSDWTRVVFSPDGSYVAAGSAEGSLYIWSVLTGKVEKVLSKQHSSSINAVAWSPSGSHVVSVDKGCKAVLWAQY
chain 2: YVPSEKLSIYGDL

Variants of: B1
assayProcedure: peptide microarray
assayConditions: with GST-HA-ATG16L1(231–607) [human]; ligand 800, 600, 400 nM; parent: 100
Report as a plain number; the unit % WT is understood.

mutations	unit	percent of parent
chain 2 S8G	% WT	57
chain 2 P3I	% WT	172

Turning to the following variant.
Problem: Output percent of parent of chain 2 K6V
Result: 56
